The reported measurements were obtained from the supplement of paper PMC12338614.

B1: library; numbered along this chain (parent)
chain: MEVVDPQQLGMFTEGELMSVGMDTFIHRIDSTEVIYQPRRKRAKLIGKYLMGDLLGEGSYGKVKEVLDSETLCRRAVKILKKKKLRRIPNGEANVKKEIQLLRRLRHKNVIQLVDVLYNEEKQKMYMVMEYCVCGMQEMLDSVPEKRFPVCQAHGYFCQLIDGLEYLHSQGIVHKDIKPGNLLLTTGGTLKISDLGVAEALHPFAADDTCRTSQGSPAFQPPEIANGLDTFSGFKVDIWSAGVTLYNITTGLYPFEGDNIYKLFENIGKGSYAIPGDCGPPLSDLLKGMLEYEPAKRFSIRQIRQHSWFRKKHPPAEAPVPIPPSPDTKDRWRSMTVVPYLEDLHGADEDEDLFDIEDDIIYTQDFTVPGQVPEEEASHNGQRRGLPKAVCMNGTEAAQLSTKSRAEGRAPNPARKACSASSKIRRLSACKQQ

- Variants of: B1
- ASSAY REMARKS: STK11 functional score (HeLa growth suppression), rescaled enrichment; synonymous median = 1, nonsense median = 0 (normalised score)
- CONDITION DESCRIPTION: with HeLa; variant type: missense
// classify: if (STK11 functional score < 0.6) 1.0 else 0.0

I'd appreciate it if you could check whether S216K has STK11 functional score smaller than 0.6.
1.0

I'd appreciate it if you could check whether E293T has STK11 functional score smaller than 0.6.
0.0

I'd appreciate it if you could check whether C151L has STK11 functional score smaller than 0.6.
1.0

I'd appreciate it if you could check whether D194R has STK11 functional score smaller than 0.6.
1.0

I'd appreciate it if you could check whether V143G has STK11 functional score smaller than 0.6.
0.0

I'd appreciate it if you could check whether P38R has STK11 functional score smaller than 0.6.
0.0

I'd appreciate it if you could check whether L54W has STK11 functional score smaller than 0.6.
1.0

I'd appreciate it if you could check whether S334G has STK11 functional score smaller than 0.6.
0.0

I'd appreciate it if you could check whether P275T has STK11 functional score smaller than 0.6.
0.0

I'd appreciate it if you could check whether G242K has STK11 functional score smaller than 0.6.
1.0

I'd appreciate it if you could check whether M289C has STK11 functional score smaller than 0.6.
0.0
